The reported numbers originate from ChEMBL document CHEMBL1125690.

Molecular target: Thymidylate synthase (Mus musculus)
Sequence (P07607 whole entry): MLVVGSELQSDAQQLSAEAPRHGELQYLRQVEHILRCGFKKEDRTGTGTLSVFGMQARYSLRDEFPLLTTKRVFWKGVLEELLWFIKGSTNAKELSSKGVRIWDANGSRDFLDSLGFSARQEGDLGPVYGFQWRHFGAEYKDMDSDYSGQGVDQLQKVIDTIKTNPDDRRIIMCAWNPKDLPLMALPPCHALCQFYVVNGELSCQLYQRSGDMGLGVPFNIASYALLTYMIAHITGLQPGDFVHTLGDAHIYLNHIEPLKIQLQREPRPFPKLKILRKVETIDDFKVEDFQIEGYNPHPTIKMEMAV
pIC50 overview
Worth noting: pIC50 values are minus log10 of concentrations stated in mol/L.

CCN(Cc1ccc2nc(C)nc(O)c2c1)c1cnc(C(=O)N[C@H](CCC(=O)O)C(=O)O)s1    6.64
C=CCN(Cc1ccc2nc(C)nc(O)c2c1)c1ccc(C(=O)N[C@H](CCC(=O)O)C(=O)O)s1    5.77
CCN(Cc1ccc2nc(C)[nH]c(=O)c2c1)c1ccc(C(=O)N[C@@H](CCC(=O)O)C(=O)O)nc1    6.82
C#CCN(Cc1ccc2nc(C)[nH]c(=O)c2c1)c1ccc(C(=O)N[C@@H](CCC(=O)O)C(=O)O)nc1    7.40
Cc1nc(O)c2cc(CNc3ccc(C(=O)N[C@H](CCC(=O)O)C(=O)O)s3)ccc2n1    4.61

Problem: Retrieve pIC50 on Thymidylate synthase (Mus musculus); query CCN(Cc1ccc2nc(CF)nc(O)c2c1)c1ccc(C(=O)N[C@H](CCC(=O)O)C(=O)O)s1
Solution: 6.03

Problem: Retrieve pIC50 on Thymidylate synthase (Mus musculus); query Cc1nc(O)c2cc(CN(CC#N)c3ccc(C(=O)N[C@H](CCC(=O)O)C(=O)O)s3)ccc2n1
Solution: 5.51

Problem: Retrieve pIC50 on Thymidylate synthase (Mus musculus); query Cc1nc2ccc(CN(C)c3ccc(C(=O)N[C@@H](CCC(=O)O)C(=O)O)cc3)cc2c(=O)[nH]1
Solution: 6.60
